Data provenance is patent US20240083857A1.

Recorded IC50 for the following compounds
measured.on: human SOS1 (nucleotide exchange of K-Ras^G12C) (Homo sapiens, UniProt Q07889)
experiment.description: Biochemical assay 2: K-Ras^G12C activation assay by hSOS1 at high GTP concentration (HTRF)
experimental.conditions: E-notation values; unit inferred; 50 μM GTP; read-out: Assay 2 (KRAS-Activation, high GTP) IC50
Number only, in nM; omit the unit.

Reference set, count: 5
So what does the record say about IC50 for COc1cc2nc(C)nc(NC(C)c3ccc(-c4c(Cl)cccc4CN)s3)c2cc1OC (centres unmarked) ?
28

So what does the record say about IC50 for COc1cc2nc(C)nc(NC(C)c3ccc(-c4ccc(C5CC5)cc4CN(C)C)s3)c2cc1OC (centres unmarked) ?
60.5

So what does the record say about IC50 for COCCNCc1ccccc1-c1ccc(C(C)Nc2nc(C)nc3cc(OC)c(OC)cc23)s1 (centres unmarked) ?
152

So what does the record say about IC50 for COc1cc2nc(C)nc(NC(C)c3cc(C)c(-c4ccc(F)cc4CN)s3)c2cc1OC (centres unmarked) ?
192

So what does the record say about IC50 for Cc1nc(NC(C)c2ccc(-c3ccccc3CN(C)C)s2)c2cc(N3CCC(N(C)C)C3)ccc2n1 (centres unmarked) ?
39.8

Please look at the following compound next.
So what does the record say about IC50 for Cc1nc(NC(C)c2ccc(-c3ccccc3CN(C)C)s2)c2cc(N3CCN(Cc4ccccc4)C(=O)C3)ccc2n1 (centres unmarked) ?
40

* * *

measured.on: human SOS1 (nucleotide exchange of K-Ras^G12C) (Homo sapiens, UniProt Q07889)
experiment.description: Biochemical assay 2: K-Ras^G12C activation assay by hSOS1 at high GTP concentration (HTRF)
experimental.conditions: high GTP; read-out: Assay 2 (KRAS-Activation by SOS high GTP) activity expressed as IC50
Sorting guide: entries reporting IC50 beneath 2000 nM go in the y pile, the rest go in the n pile.

Determine if COc1cc2nc(C)nc(NC(C)c3cc(Br)cs3)c2cc1OC (centres unmarked) [Example 264] shows IC50 strictly lower than 2000 nM.
y

***
Determine if CCCCNCc1ccccc1-c1ccc(C(C)Nc2nc(C)nc3cc(OC)c(OC)cc23)s1 (centres unmarked) [Example 366] shows IC50 strictly lower than 2000 nM.
y

Determine if COc1cc2nc(C)nc(NC(C)c3cccc4c3CCCC4)c2cc1OC (centres unmarked) [Example 11] shows IC50 strictly lower than 2000 nM.
y

Determine if COc1cc2nc(C)nc(N[C@H](C)c3cccc(Cl)c3)c2cc1OC [Example 2] shows IC50 strictly lower than 2000 nM.
y

Determine if COc1cc2nc(C)nc(N[C@@H](C)c3ccc(-c4cccc5cnccc45)s3)c2cc1OC (racemic) [Example 45] shows IC50 strictly lower than 2000 nM.
n

Determine if COc1cccc(-c2cccc([C@@H](C)Nc3nc(C)nc4cc(OC)c(OC)cc34)c2)c1 [Example 99] shows IC50 strictly lower than 2000 nM.
y

Determine if COc1cc2nc(C)nc(N[C@H](C)c3cccc(-c4cccc(OCc5ccccc5)c4)c3)c2cc1OC [Example 123] shows IC50 strictly lower than 2000 nM.
n

* * *

Recorded IC50 for the following compounds
measured.on: K-Ras^G12C : hSOS1 interaction (Homo sapiens, UniProt Q07889)
experiment.description: Biochemical assay 1: K-Ras^G12C interaction assay with hSOS1 (HTRF)
Assay type: binding
experimental.conditions: E-notation values; unit inferred; read-out: Assay 1 (KRAS-SOS interaction) IC50
Number only, in nM; omit the unit.

Reference set, count: 3
So what does the record say about IC50 for COc1cc2nc(C)nc(NC(C)c3cc(Cl)c(-c4ccccc4CN(C)C)s3)c2cc1OC (stereo not shown) [Example 431] ?
324

So what does the record say about IC50 for C#CC(O)c1ccccc1-c1ccc(C(C)Nc2nc(C)nc3cc(OC)c(OC)cc23)s1 (stereo not shown) [Example 378] ?
430

So what does the record say about IC50 for Cc1nc(NC(C)c2ccc(Br)s2)c2cc(N3CCN(C)CC3)ccc2n1 (stereo not shown) [Example 416] ?
867

***
So what does the record say about IC50 for COc1cc2nc(C)nc(NC(C)c3sc(-c4ccccc4CNC(=O)OC(C)(C)C)cc3Cl)c2cc1OC (stereo not shown) [Example 429] ?
6090

* * *

measured.on: human SOS1 (nucleotide exchange of K-Ras^G12C) (Homo sapiens)
experiment.description: Biochemical assay 2: K-Ras^G12C activation assay by hSOS1 at high GTP concentration (HTRF)
experimental.conditions: high GTP; read-out: Assay 2 (KRAS-Activation by SOS high GTP) activity expressed as IC50
Recorded log10(IC50) for the following compounds
Plainly stated, the numbers are log10 of IC50 given in µM.

So what does the record say about log10(IC50) for COc1cc2nc(C)nc(NC(C)c3csc(-c4cnn(CCO)c4)c3)c2cc1OC (centres unmarked) [Example 251] ?
0.77

So what does the record say about log10(IC50) for COc1cc2nc(C)nc(N[C@H](C)c3cccc(/C=C/c4ccccc4)c3)c2cc1OC [Example 114] ?
0.38

Please look at the following compound next.
So what does the record say about log10(IC50) for COc1cc2nc(C)nc(NC(C)c3ccc(-c4ccccc4CNc4cc[nH]n4)s3)c2cc1OC (centres unmarked) [Example 302] ?
0.10

* * *

measured.on: human SOS1 (loading of human K-Ras^G12C-GDP with fluorescent GTP-analog) (Homo sapiens)
experiment.description: Biochemical assay 3: K-Ras^G12C activation assay by hSOS1 (HTRF)
experimental.conditions: no GTP; read-out: Assay 3 (KRAS-Activation by SOS no GTP) activity expressed as IC50
pIC50: −log10 of the molar value.
pIC50 of 6 or higher: y. Under 6: n.

Say whether COc1cc2nc(C)nc(NC(C)c3c(F)ccc4[nH]ncc34)c2cc1OC (centres unmarked) shows pIC50 of 6 or more.
n

Say whether Cc1nc(N[C@H](C)c2ccccc2)c2cc(N=S(C)(C)=O)ccc2n1 shows pIC50 of 6 or more.
n

Say whether CCNCc1ccccc1-c1ccc(C(C)Nc2nc(C)nc3cc(OC)c(OC)cc23)s1 (centres unmarked) shows pIC50 of 6 or more.
y

Say whether COc1cc2nc(C)nc(N[C@H](C)c3cccc(-c4cncc(S(C)(=O)=O)c4)c3)c2cc1OC shows pIC50 of 6 or more.
n

Say whether COc1cc2nc(C)nc(NC(C)c3ccc(-c4ccccc4C(C)=O)s3)c2cc1OC (centres unmarked) shows pIC50 of 6 or more.
n

Say whether COc1cc2nc(C)nc(NC(C)c3ccc(-c4cccc5[nH]ncc45)s3)c2cc1OC (centres unmarked) shows pIC50 of 6 or more.
n

Say whether COc1cc2nc(C)nc(N[C@H](C)c3cccc(-c4cnc(N)nc4)c3)c2cc1OC shows pIC50 of 6 or more.
n

* * *

measured.on: human SOS1 (loading of human K-Ras^G12C-GDP with fluorescent GTP-analog) (Homo sapiens)
experiment.description: Biochemical assay 3: K-Ras^G12C activation assay by hSOS1 (HTRF)
experimental.conditions: no GTP; read-out: Assay 3 (KRAS-Activation by SOS no GTP) activity expressed as IC50
Label scheme, based on IC50: bottom range: < 800 nM; center range: ≥ 800 nM and < 4000 nM; top range: ≥ 4000 nM

Please review the following examples before continuing.
# bin lookup: classify COc1cc2nc(C)nc(NC(C)c3csc4ccccc34)c2cc1OC (stereo not drawn) by its IC50
bottom range

# bin lookup: classify COc1cc2nc(C)nc(N[C@H](C)c3cccc(C4CC4(C)C)c3)c2cc1OC (stereo partly drawn) by its IC50
center range

# bin lookup: classify COc1cc2nc(C)nc(NC(C)c3ccc(-c4ccccc4CNCC(F)(F)F)s3)c2cc1OC (stereo not drawn) by its IC50
top range

# bin lookup: classify COc1cc2nc(C)nc(N[C@@H](C)c3ccc(-c4csc5ccccc45)s3)c2cc1OC (racemic) by its IC50
top range

# bin lookup: classify COc1cc2nc(C)nc(NC(C)c3ccc(-c4ccccc4[C@@H](C)NC(=O)OC(C)(C)C)s3)c2cc1OC (stereo in doubt) by its IC50
center range

# bin lookup: classify COc1cc2nc(C)nc(NC(C)c3ccc(-c4cnc5n4CCC5)s3)c2cc1OC (single isomer, unassigned; enantiomer 2) [Example 329] by its IC50
top range

# bin lookup: classify COc1cc2nc(C)nc(N[C@H](C)c3cccc(-c4ccccc4C(=O)N(C)C)c3)c2cc1OC by its IC50
center range

# bin lookup: classify COc1cc2nc(C)nc(N[C@@H](C)c3ccc(-c4ccccc4S(=O)(=O)N(C)C)s3)c2cc1OC (racemic) by its IC50
top range

***
# bin lookup: classify COc1cc2nc(C)nc(NC(C)c3ccc(-c4ccccc4[C@H](C)N)s3)c2cc1OC (stereo in doubt) by its IC50
bottom range

# bin lookup: classify COc1cc2nc(C)nc(N[C@H](C)c3cccc(-c4cn[nH]c4)c3)c2cc1OCc1ccccc1 by its IC50
center range

# bin lookup: classify COc1cc2nc(C)nc(NC(C)c3ccc(-c4ccccc4CN4CC[C@H]4CO)s3)c2cc1OC (stereo partly drawn) by its IC50
bottom range

# bin lookup: classify COc1cc2nc(C)nc(NC(C)c3ccc(-c4ccc(F)cc4CN)s3)c2cc1OC (stereo not drawn) by its IC50
bottom range

# bin lookup: classify COc1cc2nc(C)nc(NC(C)c3cc(-c4ccn(CCO)n4)cs3)c2cc1OC (stereo not drawn) by its IC50
center range

# bin lookup: classify COc1cc2nc(C)nc(N[C@H](C)c3cccc(-c4ccc(S(C)(=O)=O)cc4)c3)c2cc1OC by its IC50
center range
